Tgt: human FGFR-3 (Homo sapiens (Human), UniProt P22607)
Sequence (P22607 397-806): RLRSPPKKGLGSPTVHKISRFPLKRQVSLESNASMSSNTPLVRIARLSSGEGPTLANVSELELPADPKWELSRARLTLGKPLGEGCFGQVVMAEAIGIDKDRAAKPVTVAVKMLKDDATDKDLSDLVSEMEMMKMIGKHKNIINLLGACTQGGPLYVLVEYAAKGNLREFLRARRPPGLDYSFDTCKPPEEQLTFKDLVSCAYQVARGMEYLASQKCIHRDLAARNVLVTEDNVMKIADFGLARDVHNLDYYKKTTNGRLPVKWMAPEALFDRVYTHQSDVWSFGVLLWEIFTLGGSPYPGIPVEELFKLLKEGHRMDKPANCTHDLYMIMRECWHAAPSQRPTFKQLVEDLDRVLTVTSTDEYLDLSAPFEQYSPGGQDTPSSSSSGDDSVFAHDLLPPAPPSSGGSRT
Assay comment: FGFR-3 kinase assay (TR-FRET)
Type: biochemical
Particulars: 10 μM ATP; 15 min pre-incubation with enzyme; compounds of the invention
pIC50: −log10 of the molar value. Structures can show the parent of a compound that is named as a salt.
Quick reference: pIC50 of the listed items.
Metric: pIC50

> print(dat)
                                   compound  metric  result.number
1  COc1cc(C)cc2cc(-c3c(CNC(C)=O)c(CN4CCNC(=O)C4)n4ncnc(N)c34)sc12 [Example 67]   pIC50           8.03
2  COc1cc(C)cc2cc(-c3c(COc4ccccc4)c(CN4CCNCC4)n4ncnc(N)c34)sc12 [Example 35]   pIC50           7.18
3  COc1cc(C)cc2cc(-c3c(CNCC(C)(C)O)c(Cl)n4ncnc(N)c34)sc12 [Example 82]   pIC50           7.80
4  COc1cc(C)cc2cc(-c3c(CN4CCNC(=O)C4)c(CN4CCOCC4)n4ncnc(N)c34)sc12 [Example 52]   pIC50           8.15
5  COc1cc(C)cc2cc(-c3c(C)c(CN4CCNCC4)n4ncnc(N)c34)sc12 [Example 84]   pIC50           7.78
6  COc1cc(C)cc2cc(-c3c(COCC(F)(F)F)c(CN4CCNCC4)n4ncnc(N)c34)sc12 [Example 29]   pIC50           8.60
7  COc1cc(C)cc2cc(-c3c(CN4CCC(O)C4)c(CN4CCNCC4)n4ncnc(N)c34)sc12 (racemic) [Example 42, trihydrochloride]   pIC50           7.74

###

Tgt: human FGFR-1 (Homo sapiens)
Sequence (P11362 22-822 limits assumed): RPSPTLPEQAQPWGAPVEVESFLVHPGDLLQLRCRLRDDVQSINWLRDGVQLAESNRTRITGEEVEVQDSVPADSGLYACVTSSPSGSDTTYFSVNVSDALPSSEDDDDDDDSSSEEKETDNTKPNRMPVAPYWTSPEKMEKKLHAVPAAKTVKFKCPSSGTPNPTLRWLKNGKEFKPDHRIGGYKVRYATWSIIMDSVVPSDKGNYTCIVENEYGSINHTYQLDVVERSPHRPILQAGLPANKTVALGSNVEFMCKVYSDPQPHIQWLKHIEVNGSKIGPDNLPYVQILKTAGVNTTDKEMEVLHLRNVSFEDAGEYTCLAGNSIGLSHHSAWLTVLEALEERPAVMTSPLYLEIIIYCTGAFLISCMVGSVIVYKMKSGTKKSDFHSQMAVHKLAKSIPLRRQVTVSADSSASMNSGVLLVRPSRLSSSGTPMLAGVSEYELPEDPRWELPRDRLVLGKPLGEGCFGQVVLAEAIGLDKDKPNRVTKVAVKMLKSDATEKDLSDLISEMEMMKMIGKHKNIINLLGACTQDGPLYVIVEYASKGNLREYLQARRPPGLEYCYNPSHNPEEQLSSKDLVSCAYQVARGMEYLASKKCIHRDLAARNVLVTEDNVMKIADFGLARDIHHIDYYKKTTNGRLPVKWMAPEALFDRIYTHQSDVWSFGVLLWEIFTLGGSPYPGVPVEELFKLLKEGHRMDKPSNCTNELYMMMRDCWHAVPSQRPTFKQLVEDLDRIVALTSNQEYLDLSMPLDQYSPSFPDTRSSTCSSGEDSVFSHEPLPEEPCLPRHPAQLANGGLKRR
Assay comment: FGFR-1 high ATP kinase assay (TR-FRET)
Assay type: biochemical
Particulars: 2 mM ATP; 15 min pre-incubation with enzyme; compounds of the invention
Decision: IC50 beneath 2 nM gives True; IC50 meeting or exceeding 2 nM gives False.

> print(dat)
                                   compound  category.label
1  CCOCc1c(-c2cc3cc(C)cc(OC)c3s2)c2c(N)ncnn2c1CN1CCC(O)C1 (centres unmarked)           False
2  CCOCc1c(-c2cc3cc(C)cc(OC)c3s2)c2c(N)ncnn2c1C(=O)N(C)C           False
3  CCOCc1c(-c2cc3cc(C)cc(OC)c3s2)c2c(N)ncnn2c1C(=O)N1CCNC(=O)C1           False
4  COc1cc(C)cc2cc(-c3c(COCC(N)=O)c(CN4CCN(C(C)=O)CC4)n4ncnc(N)c34)sc12           False
5  COc1cc(C)cc2cc(-c3c(CNC(C)=O)c(CN4CCNC(=O)C4)n4ncnc(N)c34)sc12           False
6  COc1cc(C)cc2cc(-c3c(COC4CCC4)c(CN4CCNCC4)n4ncnc(N)c34)sc12            True
7  COc1cc(C)cc2cc(-c3c(CNC(C)=O)c(CN4CCN(C(C)=O)CC4)n4ncnc(N)c34)sc12            True
8  COC(=O)COCc1c(-c2cc3cc(C)cc(OC)c3s2)c2c(N)ncnn2c1CN1CCNCC1            True
